Test: Quantitative High-Throughput drug screen in 47 multiple myeloma cell lines against the NCATS MIPE library collection: Delta47_JCRB cell viability assay (AID 1918925; further: nearly all actives have a fitted effect of over 45% in size)
Conditions: Delta47 myeloma viability, CellTiter-Glo ATP, 48 h; series mostly up to 45.8 µM
Inconclusive results are not listed. Active and inactive are the calls of the source. The call rests on the fitted dose curve; in most records, active means well fitted cell-killing curve with a large enough effect; inconclusive means small, poorly fitted or top-dose-only effect, or effect the other way; inactive means no such curve, though single readings can be large or run the other way.
Reply using exactly one outcome from y (active), n (inactive)

Enquiry: Hi team, can someone confirm the assay call for CC(C)OC(=O)CCCC=CC[C@@H]1[C@H](C=C[C@@H](O)COc2cccc(C(F)(F)F)c2)[C@H](O)C[C@@H]1O ?
Return: y

Enquiry: Subsequent entry: NC(=O)c1cnc(-c2ccc(C3(N)CCC3)cc2)c(-c2ccccc2)c1
Return: y

Enquiry: Same read-out for NC(CO)(CO)CCc1ccc(Sc2cccc(OCc3ccccc3)c2)cc1Cl ?
Return: y

Enquiry: Can you check CS(=O)c1ccc(-c2nc(-c3ccc(F)cc3)c(-c3ccncc3)[nH]2)cc1 (centres undefined) next?
Return: y

Enquiry: How about this molecule: C[C@H]1[C@H](NC(=O)C(=NOC(C)(C)C(=O)O)c2csc(N)n2)C(=O)N1S(=O)(=O)O
Return: n

Enquiry: Then COc1ccc2cccc(CCNC(C)=O)c2c1 ?
Return: n

Enquiry: Another: O=C(CCCCCCC(=O)Nc1ccccc1)NO
Return: y

Enquiry: Do the same for CCCCCCCCCCCC1=C(O)C(=O)C=C(O)C1=O please
Return: y

Enquiry: Now consider CO[C@H]1C=CC=C(C)C(=O)NC2=CC(=O)C(NCCN(C)C)=C(C[C@@H](C)C[C@H](OC)[C@@H](O)[C@@H](C)C=C(C)[C@@H]1OC(N)=O)C2=O .
Return: y

====

Experiment: Quantitative High-Throughput drug screen in 47 multiple myeloma cell lines against the NCATS MIPE library collection: MM1S_ATCC cell viability assay (AID 1918980); further: nearly all actives have a fitted effect of over 45% in size
Conditions: MM1S myeloma viability, CellTiter-Glo ATP luminescence, 48 h; series mostly up to 45.8 µM
Records with an inconclusive call do not appear. Activity calls are given as the source filed them. The call rests on the fitted dose curve; in most records, active means well fitted cell-killing curve with a large enough effect; inconclusive means small, poorly fitted or top-dose-only effect, or effect the other way; inactive means no such curve, though single readings can be large or run the other way.
Respond only with the outcome that fits, drawn from y = active, n = inactive

Enquiry: Entry CS(=O)c1ccc(-c2nc(-c3ccc(F)cc3)c(-c3ccncc3)[nH]2)cc1 (centres undefined) : call = ?
Return: y

Enquiry: Also check CC(=Cc1ccccc1)C=C1SC(=S)N(CC(=O)O)C1=O
Return: n

Enquiry: Check N#Cc1ccc(NC(=O)Nc2ccccc2Br)c2n[nH]nc12 too.
Return: y

Enquiry: Field entry: N#C[C@H]1C[C@H]2C[C@@H]2N1C(=O)[C@@H](N)C12CC3CC(CC(O)(C3)C1)C2
Return: y

Enquiry: Also, CCS(=O)(=O)N1CC(CC#N)(n2cc(-c3ncnc4[nH]ccc34)cn2)C1 please.
Return: y

Enquiry: Ok, now Cc1ccc(/C=N/NC(=O)c2ccccc2Oc2ccccc2)o1
Return: y

Enquiry: Here is the next compound: COc1cc(NC(=O)c2ccc(-c3ccc(Cl)cc3)o2)cc(OC)c1
Return: y

Enquiry: Try this compound too: C=C1C(=O)[C@@]23C(CC[C@@H]1[C@H]2O)[C@@]12CO[C@]3(O)[C@@H](O)[C@@H]1C(C)(C)CC[C@@H]2O (some centres undefined)
Return: y

Enquiry: CCC(=O)NC[C@H](Cc1ccc(OCCc2nc(-c3ccccc3)oc2C)cc1)NC(C)=CC(=O)c1ccc(C(F)(F)F)cc1 , same question.
Return: y

====

Assay: Quantitative High-Throughput drug screen in 47 multiple myeloma cell lines against the NCATS MIPE library collection: AMO1_DSMZ cell viability assay (AID 1918927; further: nearly all actives have a fitted effect of over 30% in size)
Conditions: AMO1 myeloma cells viability, CellTiter-Glo ATP luminescence, 48 h; series mostly up to 45.8 µM
Inconclusive results are not listed. Activity calls are given as the source filed them. The call rests on the fitted dose curve; in most records, active means well fitted cell-killing curve with a large enough effect; inconclusive means small, poorly fitted or top-dose-only effect, or effect the other way; inactive means no such curve, though single readings can be large or run the other way.
Could you please pick one outcome from this set? yes (1) = active, no (0) = inactive

Enquiry: Just curious, what result did C[C@]12CCC3c4ccc(O)cc4CCC3C1CCC2=O (stereo not given in full) get here?
Return: yes (1)

Enquiry: Consider next the compound COc1cc2ncnc(-n3nc(-c4ccccn4)nc3N)c2cc1OC in the same way.
Return: no (0)

Enquiry: # repeat for OC[C@H]1O[C@@H](Oc2cc(O)cc(C=Cc3ccc(O)cc3)c2)[C@H](O)[C@@H](O)[C@H]1O
Return: no (0)

Enquiry: What do we get for CO[C@H]1C=CC=C(C)C(=O)NC2=CC(=O)C(NCCN(C)C)=C(C[C@@H](C)C[C@H](OC)[C@@H](O)[C@@H](C)C=C(C)[C@@H]1OC(N)=O)C2=O ?
Return: yes (1)

Enquiry: Next compound up: Cc1ccc(C(C)(O)c2nc3ccccc3s2)c(C)c1 (stereo not given)
Return: yes (1)

====

Experiment: qHTS Screen of the MIPE 4.0 Collection Against Ewings Sarcoma (EW8) (AID 1259255); further: nearly all actives have a fitted effect of over 35% in size; further: potency means the concentration at half of the fitted maximal effect;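 on viability: 100% = DMSO-treated cells and 0% = medium-only wells without cells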
Conditions: EW8 Ewing sarcoma viability, CellTiter-Glo, 48 h; series mostly up to 45.8 µM
Records with an inconclusive call do not appear. The source made the active and inactive calls. Calls come from the whole dose curve; as a rule, active = well fitted inhibition curve with a large enough effect; inconclusive = small, poorly fitted or top-dose-only effect; inactive = no such curve, though single readings can be large or run the other way.
Measured parameter: Potency

[[record]]
compound = "CN(C[C@@H]1COCCO1)S(=O)(=O)Nc1ccc2ccc3ncc(-c4cnn(C)c4)cc3c(=O)c2c1"
measured_parameter = "Potency"
reading = "18.7 µM (active)"

[[record]]
compound = "CCCCCN(C)CCC(O)(P(=O)(O)O)P(=O)(O)O"
measured_parameter = "Potency"
reading = "inactive"

[[record]]
compound = "COc1ccc(-c2coc3cc(O)cc(O)c3c2=O)cc1"
measured_parameter = "Potency"
reading = "inactive"

[[record]]
compound = "CN[C@@H](C)C(=O)N[C@H]1CN(C(=O)CC(C)C)CC[C@H]2CC[C@@H](C(=O)NC(c3ccccc3)c3ccccc3)N2C1=O"
measured_parameter = "Potency"
reading = "inactive"

[[record]]
compound = "O=c1c(-c2ccc(O)cc2)coc2cc(OC3O[C@H](CO)[C@H](O)[C@H](O)[C@H]3O)cc(O)c12 (stereo not given in full)"
measured_parameter = "Potency"
reading = "18.7 µM (active)"

[[record]]
compound = "C=C1C(=O)OC2C=C(C)CCC=C(C)CCC12 (stereo not given)"
measured_parameter = "Potency"
reading = "23.5 µM (active)"

[[record]]
compound = "O=C1NC(=O)C(=Cc2ccc3nccnc3c2)S1"
measured_parameter = "Potency"
reading = "9.11 µM (active)"

[[record]]
compound = "C[C@H]1[C@H](NC(=O)C(=NOC(C)(C)C(=O)O)c2csc(N)n2)C(=O)N1S(=O)(=O)O"
measured_parameter = "Potency"
reading = "inactive"

[[record]]
compound = "CCC(CC)[C@H](NC(C)=O)[C@@H]1[C@H](O)[C@@H](C(=O)O)C[C@@H]1N=C(N)N"
measured_parameter = "Potency"
reading = "inactive"

[[record]]
compound = "NS(=O)(=O)c1cccc2c1C(=O)c1cccc(O)c1C2=O"
measured_parameter = "Potency"
reading = "11.8 µM (active)"


Enquiry: Give the measured Potency of C=C1C(=O)[C@@]23C(CC[C@@H]1[C@H]2O)[C@@]12CO[C@]3(O)[C@@H](O)[C@@H]1C(C)(C)CC[C@@H]2O (stereo not given in full) .
Return: 4.18 µM (active)

Enquiry: Continue with CC(C)(C)COc1ccc(-n2cc(C(=O)O)cn2)cc1C#N
Return: inactive

====

Test: Drug repurposing screens with cells derived from glioblastoma tumor samples (AID 1345199); further: on the % scale 0 is the no-effect control and ±100 the full control effect; nearly all actives have a fitted effect of over 40% in size
Settings: GBM patient neurospheres viability, ATP luminescence, 48 h; at 45.9 µM (top of the series); tumour line D
Records with an inconclusive call do not appear.
Measured parameter: activity, negative = cell killing (%)
Report the value in % with no unit label.

Enquiry: What value of activity, negative = cell killing has been recorded for this entry: CC(=O)c1ccc(S(=O)(=O)NC(=O)NC2CCCCC2)cc1
Return: 0.333

Enquiry: Cool, now CCN1CCC[C@H]1CNC(=O)c1cc(S(N)(=O)=O)ccc1OC
Return: -10.3

Enquiry: O=C(O)CCc1nc(-c2ccccc2)c(-c2ccccc2)o1 , same question.
Return: 3.1

Enquiry: Next up: C[N+](C)(C)CCCCCC[N+](C)(C)C
Return: -17.5

Enquiry: Try the compound COC(=O)[C@@H]1[C@H]2C[C@H]3c4[nH]c5ccccc5c4CCN3C[C@@H]2CC[C@@H]1O
Return: 3.82

Enquiry: Do the same for O=C1NC(=O)C(c2ccccc2)(c2ccccc2)N1 please
Return: -12.9

Enquiry: Same for CCn1cc(C(=O)O)c(=O)c2ccc(C)nc21
Return: -3.73

Enquiry: Would you kindly repeat that for NC(N)=Nc1nc(CSCC/C(N)=N/S(N)(=O)=O)cs1 ?
Return: -7.06

Enquiry: CC(=O)O[C@]1(C(C)=O)CC[C@H]2[C@@H]3C=C(Cl)C4=CC(=O)[C@@H]5C[C@@H]5[C@]4(C)[C@H]3CC[C@@]21C ?
Return: -23

Enquiry: Now the compound CCCNC(=O)NS(=O)(=O)c1ccc(Cl)cc1
Return: 5.01

Enquiry: Would you kindly repeat that for N#C[C@H]1C[C@H]2C[C@@H]2N1C(=O)[C@@H](N)C12CC3CC(CC(O)(C3)C1)C2 ?
Return: -16.4

Enquiry: What do we get for CC1(C)O[C@H]2C[C@@H]3[C@H]4CCC5=CC(=O)C=C[C@]5(C)[C@@]4(F)[C@@H](O)C[C@]3(C)[C@]2(C(=O)CO)O1 ?
Return: 5.68

Enquiry: Consider next the compound CN1[C@@H]2CCC[C@@H]1CC(NC(=O)c1nn(C)c3ccccc13)C2 (some centres not stated) in the same way.
Return: 2.65

Enquiry: Same thing, different compound: O=C(O)c1cc(-c2ccccc2)nc2ccccc12
Return: -24.8

Enquiry: Please give the result for Cc1nnc(C(C)C)n1C1C[C@H]2CC[C@@H](C1)N2CC[C@H](NC(=O)C1CCC(F)(F)CC1)c1ccccc1 (some centres not stated) too.
Return: -11.6

Enquiry: Next: O=C(O)Cc1cccc2ccccc12
Return: 18.7

Enquiry: // repeat for CC(=O)Oc1cc2c(s1)CCN(C(C(=O)C1CC1)c1ccccc1F)C2 (configuration not stated) and report
Return: -7.3

Enquiry: One more compound: C[N+]1(C)[C@@H]2CC(OC(=O)[C@H](CO)c3ccccc3)C[C@H]1[C@H]1O[C@@H]12 (some centres not stated)
Return: -20.1

Enquiry: Query CCOC(=O)O[C@]1(C(=O)OCCl)CC[C@@H]2[C@H]3CCC4=CC(=O)C=C[C@]4(C)[C@@H]3[C@@H](O)C[C@@]21C next
Return: 8.73

Enquiry: Entry CCN(CC)C(=O)c1ccc(O)c(OC)c1 please
Return: 5.23

Enquiry: Moving on to Cc1cccc(C)c1OCC(C)N (configuration not stated)
Return: 4.9

Enquiry: Can you handle CN(C)c1cc(NC(=O)CNC(C)(C)C)c(O)c2c1C[C@@H]1C[C@H]3[C@H](N(C)C)C(=O)C(C(N)=O)=C(O)[C@@]3(O)C(=O)C1=C2O next?
Return: 6.87
